TESTED_TARGET: MAO-B (Mus musculus)
Construct: MAO activities in the mouse brain after; from tissue
Sequence (Q8BW75 1-520): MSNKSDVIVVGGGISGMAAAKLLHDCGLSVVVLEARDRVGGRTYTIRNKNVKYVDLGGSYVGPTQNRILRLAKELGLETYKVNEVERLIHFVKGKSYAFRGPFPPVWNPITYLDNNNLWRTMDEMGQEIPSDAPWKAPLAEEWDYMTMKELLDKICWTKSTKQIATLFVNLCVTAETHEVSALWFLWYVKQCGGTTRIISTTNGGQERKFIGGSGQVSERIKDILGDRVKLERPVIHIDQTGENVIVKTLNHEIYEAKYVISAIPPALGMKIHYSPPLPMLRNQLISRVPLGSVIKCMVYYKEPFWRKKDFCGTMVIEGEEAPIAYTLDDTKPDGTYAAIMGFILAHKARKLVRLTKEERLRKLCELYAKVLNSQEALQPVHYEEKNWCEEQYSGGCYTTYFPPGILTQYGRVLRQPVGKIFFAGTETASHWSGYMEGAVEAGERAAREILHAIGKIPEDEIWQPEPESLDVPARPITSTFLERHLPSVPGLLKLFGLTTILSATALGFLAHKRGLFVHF
TEST_NAME: MAO-B activity in the mouse brain after oral administration (substrate PE)
Format: in vivo
APPLIED_CONDITIONS: oral 10 mg/Kg, 2 hours; PE (1.9 × 10^-5 M); mean ± standard error; saline = 100
METRIC: Relative activity PE (%)
# number only, unit % dropped from output

Below, each entry is followed by its recorded Relative activity PE result.
compound=C#CCN(C)CCCCC.O=C(O)C(=O)O metric="Relative activity PE" result_value=72
compound="C#CCN(C)C(C)CCCCCCCC.Cl (stereo not shown)" metric="Relative activity PE" result_value=104
compound="C#CCN(C)C(C)CCCCCCCCCC.Cl (stereo not shown) [Example 2-DdMP, N-(2-dodecyl)-N-methylpropargylamine-HCl]" metric="Relative activity PE" result_value=64
compound="C#CCN(C)C(C)CCC.Cl.O=C(O)C(=O)O (stereo not shown)" metric="Relative activity PE" result_value=31
compound=C#CCN(C)CCCC.Cl metric="Relative activity PE" result_value=67

Q. Find Relative activity PE (MAO-B (Mus musculus)) for the entry C#CCN(C)C(C)CCCCC.Cl (stereo not shown)
A. 39

Q. And for C#CCN(C)CCCCCCC.Cl ?
A. 118
